- Condition info: basic group
Could you label it YES if measured pKa is 5 or higher, and NO otherwise?

Here are 5 compounds together with their reported answers.
CCN(CC)c1nc(N)nc(N)n1 ... YES
O=C([O-])[C@@H](O)Cc1c[nH]cn1 ... YES
c1ccc(Oc2ccnc3c2ccc2c(Oc4ccccc4)ccnc23)cc1 ... YES
Cn1cc/c(=N\N)c2ccccc21 ... YES
NNC(=O)c1ccccc1N ... NO

Let's switch to this compound now.
Record `O=c1cccccc1` ; criterion: pKa no lower than 5. Met?
NO

---

- Condition info: acidic group
Would you mind telling me the reported pKa of each entry?
One number for each entry.

Sample answers from the record:
O=C(O)c1ccccc1/N=C/C=C/c1ccccc1 ... 6.12
CC[NH+](CC)Cc1cc(Cl)cc(Cl)c1O ... 5.95

Turning now to a further compound:
What measured pKa goes with `CNC(=O)Oc1ccc2c(c1)[C@@]1(C)CC[NH+](C)[C@H]1N2C` ?
6.12
